assayed system: USP14 (Homo sapiens, UniProt P54578)
Sequence (P54578 whole entry): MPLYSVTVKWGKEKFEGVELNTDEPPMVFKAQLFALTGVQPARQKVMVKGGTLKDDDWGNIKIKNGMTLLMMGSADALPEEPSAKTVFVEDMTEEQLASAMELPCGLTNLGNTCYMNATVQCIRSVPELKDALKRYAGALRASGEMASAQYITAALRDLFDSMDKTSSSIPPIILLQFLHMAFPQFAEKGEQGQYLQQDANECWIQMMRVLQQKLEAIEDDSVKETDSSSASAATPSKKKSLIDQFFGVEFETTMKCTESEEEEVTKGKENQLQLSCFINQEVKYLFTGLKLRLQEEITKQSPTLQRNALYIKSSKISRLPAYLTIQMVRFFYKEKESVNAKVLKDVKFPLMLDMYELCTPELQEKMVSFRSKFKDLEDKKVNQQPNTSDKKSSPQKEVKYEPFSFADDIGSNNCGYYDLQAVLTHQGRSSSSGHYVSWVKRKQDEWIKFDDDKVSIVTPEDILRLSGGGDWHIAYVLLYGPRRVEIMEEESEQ
Sequence (Q13200 whole entry partner): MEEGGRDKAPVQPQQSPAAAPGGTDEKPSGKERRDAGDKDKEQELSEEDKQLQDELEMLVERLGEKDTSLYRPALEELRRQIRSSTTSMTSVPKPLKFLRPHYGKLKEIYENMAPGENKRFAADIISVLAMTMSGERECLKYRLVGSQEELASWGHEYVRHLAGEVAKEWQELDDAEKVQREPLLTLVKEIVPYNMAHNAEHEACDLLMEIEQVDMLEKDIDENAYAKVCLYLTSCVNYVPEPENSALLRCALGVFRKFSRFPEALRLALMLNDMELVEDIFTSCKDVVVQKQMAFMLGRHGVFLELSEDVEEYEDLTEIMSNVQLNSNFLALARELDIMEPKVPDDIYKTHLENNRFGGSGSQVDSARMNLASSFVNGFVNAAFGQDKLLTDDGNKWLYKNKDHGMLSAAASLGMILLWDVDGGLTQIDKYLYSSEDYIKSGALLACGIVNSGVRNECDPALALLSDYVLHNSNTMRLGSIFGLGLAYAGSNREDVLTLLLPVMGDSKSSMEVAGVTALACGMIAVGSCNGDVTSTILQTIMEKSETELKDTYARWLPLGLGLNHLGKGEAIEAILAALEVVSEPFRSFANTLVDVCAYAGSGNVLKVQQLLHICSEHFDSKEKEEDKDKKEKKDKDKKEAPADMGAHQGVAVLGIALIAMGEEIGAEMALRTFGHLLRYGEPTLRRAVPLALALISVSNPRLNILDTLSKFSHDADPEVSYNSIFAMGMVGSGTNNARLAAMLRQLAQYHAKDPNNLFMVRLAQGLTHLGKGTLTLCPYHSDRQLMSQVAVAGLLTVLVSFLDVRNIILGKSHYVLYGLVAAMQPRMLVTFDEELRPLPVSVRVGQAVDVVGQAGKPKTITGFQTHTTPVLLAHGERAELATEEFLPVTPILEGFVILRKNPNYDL
Sequence (P35998 whole entry partner): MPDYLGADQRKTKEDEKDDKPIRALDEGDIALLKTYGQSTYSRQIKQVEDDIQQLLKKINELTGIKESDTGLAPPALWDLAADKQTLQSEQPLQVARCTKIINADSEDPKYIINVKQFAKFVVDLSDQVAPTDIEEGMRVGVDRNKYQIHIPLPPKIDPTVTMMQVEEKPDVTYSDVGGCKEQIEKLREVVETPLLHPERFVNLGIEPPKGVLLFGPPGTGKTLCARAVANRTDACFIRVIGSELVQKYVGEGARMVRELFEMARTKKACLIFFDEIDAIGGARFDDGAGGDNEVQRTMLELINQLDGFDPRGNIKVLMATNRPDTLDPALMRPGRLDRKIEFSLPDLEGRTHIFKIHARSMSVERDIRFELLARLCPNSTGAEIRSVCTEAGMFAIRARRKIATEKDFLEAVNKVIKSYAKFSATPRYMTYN
run description: USP14 inhibition assay
Assay type: biochemical
run parameters: average value from three experimental determinations; reported as potency bands; read-out: IC50 (USP14 inhibition)

compound: CC(C)NC(=O)Cc1nc(N(C)C2CC2)c2c3c(sc2n1)CCCC3
assayed system: USP14 (Homo sapiens, UniProt P54578)
IC50: 1000 to 5000 nM

compound: CN(c1nc(CC(=O)N2CC(O)C2)nc2sc3c(c12)CCCC3)C1CC1
assayed system: USP14 (Homo sapiens, UniProt P54578)
IC50: < 1000 nM

compound: CN(c1nc(CCC(=O)O)nc2sc3c(c12)CCCC3)C1CC1
assayed system: USP14 (Homo sapiens, UniProt P54578)
IC50: 1000 to 5000 nM

compound: CN(c1nc(CC(=O)N2CCC(CO)C2)nc2sc3c(c12)CCCC3)C1CC1 (stereo not drawn)
assayed system: USP14 (Homo sapiens, UniProt P54578)
IC50: < 1000 nM

compound: CN(c1nc(CC(=O)NCCc2cccnc2)nc2sc3c(c12)CCCC3)C1CC1
assayed system: USP14 (Homo sapiens, UniProt P54578)
IC50: 1000 to 5000 nM

compound: CN(C)C(=O)CCc1nc(N(C)C2CC2)c2c3c(sc2n1)CCCC3
assayed system: USP14 (Homo sapiens, UniProt P54578)
IC50: 1000 to 5000 nM

compound: CN(c1nc(CC(=O)N2CCC(F)(F)CC2)nc2sc3c(c12)CCCC3)C1CC1
assayed system: USP14 (Homo sapiens, UniProt P54578)
IC50: 1000 to 5000 nM

compound: CN(c1nc(CC(=O)N2CCCC2)nc2sc3c(c12)CCCC3)C1CC1
assayed system: USP14 (Homo sapiens, UniProt P54578)
IC50: < 1000 nM

compound: CN(c1nc(CC(=O)N2CCC(S(C)(=O)=O)C2)nc2sc3c(c12)CCCC3)C1CC1 (stereo not drawn)
assayed system: USP14 (Homo sapiens, UniProt P54578)
IC50: < 1000 nM

----------
assayed system: USP14 (Homo sapiens, UniProt P54578)
run description: USP14 inhibition assay
Format: biochemical
pIC50: −log10 of the molar value.

substance smiles: CN(c1nc(CC(=O)N2CCC(=O)CC2)nc2sc3c(c12)CCCC3)C1CC1
pIC50: > 6.00

----------
assayed system: USP14 (Homo sapiens)
run description: USP14 inhibition assay
Type: biochemical
run parameters: average value from three experimental determinations; read-out: USP14 IC50
pIC50: −log10 of the molar value.
measured quantity: pIC50

substance smiles: CNC(=O)Cc1nc(N(C)C2CC2)c2c3c(sc2n1)CCCC3
assayed system: USP14 (Homo sapiens)
number: 5.96

substance smiles: COCc1nc(N(C)C2CC2)c2c3c(sc2n1)CCCC3
assayed system: USP14 (Homo sapiens)
number: 5.12

substance smiles: CN(C)C(=O)Cc1nc(N(C)C2CC2)c2c3c(sc2n1)CCCC3
assayed system: USP14 (Homo sapiens)
number: 6.30

substance smiles: CN(c1nc(CC(=O)O)nc2sc3c(c12)CCCC3)C1CC1
assayed system: USP14 (Homo sapiens)
number: 5.80

----------
assayed system: USP14 (Homo sapiens)
run description: USP14 inhibition assay
Format: biochemical
run parameters: average value from three experimental determinations; reported as potency bands; read-out: IC50 (USP14 inhibition)
pIC50: −log10 of the molar value.
measured quantity: pIC50

compound: CN(c1nc(CC(=O)N2CCOCC2)nc2sc3c(c12)CCCC3)C1CC1 [Compound 9]
measured quantity: pIC50
result: > 6.00

compound: CN(c1nc(CC(=O)N2CCC(C(N)=O)CC2)nc2sc3c(c12)CCCC3)C1CC1 [Compound 31]
measured quantity: pIC50
result: > 6.00

compound: CN(c1nc(CC(=O)N2CC[C@@H](N(C)C)C2)nc2sc3c(c12)CCCC3)C1CC1 [Compound 30]
measured quantity: pIC50
result: > 6.00

compound: CCOC(=O)Cc1nc(N(C)C(C)C)c2c3c(sc2n1)CCCC3 [Compound 41]
measured quantity: pIC50
result: < 5.30

compound: CN(c1nc(CC(=O)O)nc2sc3c(c12)CCCCC3)C1CC1 [Compound 52]
measured quantity: pIC50
result: < 5.30

compound: CN(c1nc(CC(=O)NCc2ccncc2)nc2sc3c(c12)CCCC3)C1CC1 [Compound 16]
measured quantity: pIC50
result: 5.30 to 6.00

compound: CC(=O)N1CCN(C(=O)Cc2nc(N(C)C3CC3)c3c4c(sc3n2)CCCC4)CC1 [Compound 13]
measured quantity: pIC50
result: > 6.00

compound: CC(C)N(C)c1nc(CC(=O)O)nc2sc3c(c12)CCCC3 [Compound 46]
measured quantity: pIC50
result: < 5.30

compound: CN(c1nc(CC(=O)N2CCC(N3CCOCC3)CC2)nc2sc3c(c12)CCCC3)C1CC1 [Compound 32]
measured quantity: pIC50
result: > 6.00

compound: CN(c1nc(CC(=O)C(F)(F)F)nc2sc3c(c12)CCCC3)C1CC1 [Compound 51]
measured quantity: pIC50
result: 5.30 to 6.00

compound: CN(C)C(=O)Cc1nc(N(C)C2CC2)c2c3c(sc2n1)CCCCC3 [Compound 53]
measured quantity: pIC50
result: 5.30 to 6.00

compound: CN(c1nc(CC(=O)NCc2cccnc2)nc2sc3c(c12)CCCC3)C1CC1 [Compound 19]
measured quantity: pIC50
result: 5.30 to 6.00

compound: CN(c1nc(CC(=O)N2CCCCC2)nc2sc3c(c12)CCCC3)C1CC1 [Compound 26]
measured quantity: pIC50
result: 5.30 to 6.00

compound: CCNC(=O)Cc1nc(N(C)C2CC2)c2c3c(sc2n1)CCCC3 [Compound 34]
measured quantity: pIC50
result: 5.30 to 6.00

compound: CN(c1nc(COc2cccnc2)nc2sc3c(c12)CCCC3)C1CC1 [Compound 50]
measured quantity: pIC50
result: < 5.30

compound: CN(c1nc(CC(=O)N2CC[C@H](N(C)C)C2)nc2sc3c(c12)CCCC3)C1CC1 [Compound 24]
measured quantity: pIC50
result: > 6.00

compound: CCOC(=O)Cc1nc(N(C)CC)c2c3c(sc2n1)CCCC3 [Compound 40]
measured quantity: pIC50
result: < 5.30

compound: CN(c1nc(CC(=O)NCCc2ccncc2)nc2sc3c(c12)CCCC3)C1CC1 [Compound 22]
measured quantity: pIC50
result: < 5.30

----------
assayed system: USP14 (Homo sapiens)
run description: USP14 inhibition assay
Format: biochemical
run parameters: average value from three experimental determinations; reported as potency bands; read-out: IC50 (USP14 inhibition)
pIC50: −log10 of the molar value.

molecule: CN(C)C(=O)Cc1nc(N(C)C)c2c3c(sc2n1)CCCC3 [Compound 43]
pIC50: 5.30 to 6.00
--
molecule: CN(c1nc(CC(=O)N2CCC(F)(F)C2)nc2sc3c(c12)CCCC3)C1CC1 [Compound 7]
pIC50: 5.30 to 6.00
--
molecule: CN(c1nc(CC(=O)N2CCC(O)CC2)nc2sc3c(c12)CCCC3)C1CC1 [Compound 27]
pIC50: > 6.00
--
molecule: CN(C)C(=O)Cc1nc(N2CCCC2)c2c3c(sc2n1)CCCC3 [Compound 42]
pIC50: < 5.30
--
molecule: CN(c1nc(CC(=O)N2CCCC2CO)nc2sc3c(c12)CCCC3)C1CC1 (stereo not shown) [Compound 39]
pIC50: > 6.00
--
molecule: CN(c1nc(CC(=O)N2CCC2)nc2sc3c(c12)CCCC3)C1CC1 [Compound 15]
pIC50: > 6.00
--
molecule: CN(c1nc(CO)nc2sc3c(c12)CCCC3)C1CC1 [Compound 49]
pIC50: 5.30 to 6.00
--
molecule: CN(c1nc(CC(=O)Nc2ccon2)nc2sc3c(c12)CCCC3)C1CC1 [Compound 21]
pIC50: 5.30 to 6.00
--
molecule: CN(c1nc(CC(=O)N2CCCC(O)C2)nc2sc3c(c12)CCCC3)C1CC1 (stereo not shown) [Compound 33]
pIC50: > 6.00
--
molecule: CN(C)C1CCN(C(=O)Cc2nc(N(C)C3CC3)c3c4c(sc3n2)CCCC4)C1 (stereo not shown) [Compound 8]
pIC50: > 6.00
--
molecule: CN(c1nc(CC(=O)NCc2ccccn2)nc2sc3c(c12)CCCC3)C1CC1 [Compound 18]
pIC50: 5.30 to 6.00
--
molecule: CN(c1nc(CC(N)=O)nc2sc3c(c12)CCCC3)C1CC1 [Compound 5]
pIC50: > 6.00
--
molecule: CCN(C)c1nc(CC(=O)O)nc2sc3c(c12)CCCC3 [Compound 45]
pIC50: < 5.30
